Reported IC50 values, cloned human MC4R receptors (Homo sapiens, UniProt P32245).

smiles_record=CN(C)CCC(=O)N[C@H](Cc1ccc(Cl)cc1)C(=O)N1CC(N(C(=O)COc2ccccc2)C2CCCCC2)C1 measured_result="1000 to 10000 nM"
smiles_record=CN(C)CCC(=O)N[C@H](Cc1ccc(Cl)cc1)C(=O)N1CC(N(C(=O)c2cc3ccccc3s2)C2CCCCC2)C1 measured_result="250 to 1000 nM"
smiles_record=CC(C)N([C@H]1CCN(C(=O)[C@@H](Cc2ccc(Cl)cc2)NC(=O)CCN)C1)S(C)(=O)=O measured_result="1000 to 10000 nM"
smiles_record=CC(C)N(C(=O)c1ccco1)[C@H]1CCN(C(=O)[C@@H](Cc2ccc(Cl)cc2)NC(=O)[C@H]2Cc3ccccc3CN2)C1 measured_result="250 to 1000 nM"
smiles_record=CN(C)CCC(=O)N[C@H](Cc1ccc(Cl)cc1)C(=O)N1CC(N(C(=O)Cc2ccccc2)C2CCCCC2)C1 measured_result="250 to 1000 nM"

Entry "CC(C)CC(=O)N(C1CCCC1)[C@H]1CCN(C(=O)[C@@H](Cc2ccc(Cl)cc2)NC(=O)CCN(C)C)C1" , tested on cloned human MC4R receptors (Homo sapiens, UniProt P32245), has a reported IC50 of 1000 to 10000 nM

Entry "NCCC(=O)N[C@H](Cc1ccc(Cl)cc1)C(=O)N1CC[C@@H](N(C(=O)c2ccno2)C2CCCCC2)C1" , tested on cloned human MC4R receptors (Homo sapiens, UniProt P32245), has a reported IC50 of 1000 to 10000 nM

Entry "CN(C)CCC(=O)N[C@H](Cc1ccc(Cl)cc1)C(=O)N1CC[C@H](N(C2CCCCC2)S(=O)(=O)c2ccccc2)C1" , tested on cloned human MC4R receptors (Homo sapiens, UniProt P32245), has a reported IC50 of < 250 nM

Entry "CCCCCC(=O)N(C1CCCCC1)C1CN(C(=O)[C@@H](Cc2ccc(Cl)cc2)NC(=O)CCN(C)C)C1" , tested on cloned human MC4R receptors (Homo sapiens, UniProt P32245), has a reported IC50 of 250 to 1000 nM

Entry "CC(C)(C)C(=O)N(C1CCCCC1)[C@H]1CCN(C(=O)[C@@H](Cc2ccc(Cl)cc2)NC(=O)CCN)C1" , tested on cloned human MC4R receptors (Homo sapiens, UniProt P32245), has a reported IC50 of < 250 nM

Entry "CC(C)CC(=O)N(CC(C)C)[C@H]1CCN(C(=O)[C@@H](Cc2ccc(Cl)cc2)NC(=O)CCN)C1" , tested on cloned human MC4R receptors (Homo sapiens, UniProt P32245), has a reported IC50 of 1000 to 10000 nM

Entry "CS(=O)(=O)N(C1CCCC1)[C@H]1CCN(C(=O)[C@@H](Cc2ccc(Cl)cc2)NC(=O)CCN)C1" , tested on cloned human MC4R receptors (Homo sapiens, UniProt P32245), has a reported IC50 of 1000 to 10000 nM

Entry "O=C(N[C@H](Cc1ccc(Cl)cc1)C(=O)N1CC[C@H](N(C(=O)c2ccno2)C2CCCCC2)C1)[C@H]1Cc2ccccc2CN1" , tested on cloned human MC4R receptors (Homo sapiens, UniProt P32245), has a reported IC50 of < 250 nM

---

Reported IC50 values, cloned human MC4R receptors (Homo sapiens, UniProt P32245).

Consider the worked cases shown below.
smiles_record=NCCC(=O)N[C@H](Cc1ccc(Cl)cc1)C(=O)N1CC[C@H](N(C(=O)c2ccccc2)C2CCCCC2)C1 measured_result="< 250 nM"
smiles_record=NCCC(=O)N[C@H](Cc1ccc(Cl)cc1)C(=O)N1CC[C@H](N(C(=O)c2ccco2)C2CCCCC2)C1 measured_result="< 250 nM"

Then there is this compound:
Entry "NCCC(=O)N[C@H](Cc1ccc(Cl)cc1)C(=O)N1CC[C@H](N(C(=O)c2ccoc2)C2CCCCC2)C1" , tested on cloned human MC4R receptors (Homo sapiens, UniProt P32245), has a reported IC50 of < 250 nM

---

Reported IC50 values, cloned human MC4R receptors (Homo sapiens).

Consider the worked cases shown below.
smiles_record=CN(C)CCC(=O)N[C@H](Cc1ccc(Cl)cc1)C(=O)N1CC[C@H](N(C2CCCCC2)S(C)(=O)=O)C1 observed_property=IC50 measured_result="1000 to 10000 nM"
smiles_record=CCCC(=O)N(C1CCCC1)C1CN(C(=O)[C@@H](Cc2ccc(Cl)cc2)NC(=O)CCN(C)C)C1 observed_property=IC50 measured_result="250 to 1000 nM"
smiles_record=CN(C)CCC(=O)N[C@H](Cc1ccc(Cl)cc1)C(=O)N1CC(N(C(=O)CC2CCCC2)C2CCCCC2)C1 observed_property=IC50 measured_result="250 to 1000 nM"
smiles_record=CC(C)C(=O)N(C1CCCCC1)[C@H]1CCN(C(=O)[C@@H](Cc2ccc(Cl)cc2)NC(=O)CCN)C1 observed_property=IC50 measured_result="< 250 nM"

Then there is this compound:
Lab note: "COCC(=O)N(C1CCCCC1)[C@H]1CCN(C(=O)[C@@H](Cc2ccc(Cl)cc2)NC(=O)CCN)C1" gave IC50 of 250 to 1000 nM

---

// values below are reported IC50
# tested.target: cloned human MC4R receptors (Homo sapiens)
# Construct: expressed in transfected cells; host or cells: Hi5 insect cells or HEK-293 cells (baculovirus/human MC4R receptor construct); membranes
# Sequence (P32245 whole entry): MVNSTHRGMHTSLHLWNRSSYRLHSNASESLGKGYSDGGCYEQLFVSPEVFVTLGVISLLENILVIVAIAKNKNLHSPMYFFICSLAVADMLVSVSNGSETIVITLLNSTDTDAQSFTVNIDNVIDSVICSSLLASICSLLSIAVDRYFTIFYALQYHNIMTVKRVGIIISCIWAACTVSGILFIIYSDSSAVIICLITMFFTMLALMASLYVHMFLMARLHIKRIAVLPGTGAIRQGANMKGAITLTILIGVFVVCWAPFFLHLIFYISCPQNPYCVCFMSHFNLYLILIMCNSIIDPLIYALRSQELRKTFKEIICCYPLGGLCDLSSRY
# test: Melanocortin MC4R membrane binding assay ([125I]NDP-α-MSH competition)
# condition.description: [125I]NDP-α-MSH 0.1 nM, membranes of Hi5 insect cells or HEK-293 cells, 90 minutes at 37° C.

Consider the worked cases shown below.
smiles_record=CS(=O)(=O)N(C1CCCCC1)[C@H]1CCN(C(=O)[C@@H](Cc2ccc(Cl)cc2)NC(=O)[C@H]2Cc3ccccc3CN2)C1 measured_result="< 250 nM"
smiles_record=CC(C)CN(C(=O)c1ccco1)[C@H]1CCN(C(=O)[C@@H](Cc2ccc(Cl)cc2)NC(=O)CCN(C)C)C1 measured_result="1000 to 10000 nM"
smiles_record=CC(C)CC(=O)N(C1CCCCC1)C1CN(C(=O)[C@@H](Cc2ccc(Cl)cc2)NC(=O)CCN(C)C)C1 measured_result="< 250 nM"

Lab note: "CS(=O)(=O)N(C1CCCCC1)[C@H]1CCN(C(=O)[C@@H](Cc2ccc(Cl)cc2)NC(=O)CCN)C1" gave IC50 of 250 to 1000 nM

Lab note: "CN(C)CCC(=O)N[C@H](Cc1ccc(Cl)cc1)C(=O)N1CC(N(C(=O)C2CCCC2)C2CCCCC2)C1" gave IC50 of < 250 nM

Lab note: "CCCC(=O)N(C1CCCCC1)[C@H]1CCN(C(=O)[C@@H](Cc2ccc(Cl)cc2)NC(=O)CCN)C1" gave IC50 of < 250 nM
